molecular target: human CB1 (Homo sapiens, UniProt P21554); test: Cyclic AMP assay (HTRF), CHO cells expressing human CB1
Sequence (P21554 whole entry): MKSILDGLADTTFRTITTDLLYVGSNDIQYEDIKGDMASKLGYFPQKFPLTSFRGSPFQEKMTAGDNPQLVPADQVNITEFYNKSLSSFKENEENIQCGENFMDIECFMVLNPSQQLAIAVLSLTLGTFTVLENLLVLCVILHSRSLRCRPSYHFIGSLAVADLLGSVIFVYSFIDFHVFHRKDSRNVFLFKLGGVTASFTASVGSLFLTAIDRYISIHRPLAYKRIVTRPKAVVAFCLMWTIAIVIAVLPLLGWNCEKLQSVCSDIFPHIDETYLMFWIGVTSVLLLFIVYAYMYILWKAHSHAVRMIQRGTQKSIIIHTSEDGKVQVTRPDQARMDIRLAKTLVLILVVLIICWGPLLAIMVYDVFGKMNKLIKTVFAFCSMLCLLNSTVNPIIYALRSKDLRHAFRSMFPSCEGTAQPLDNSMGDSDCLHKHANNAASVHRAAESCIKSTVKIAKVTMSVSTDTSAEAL
Parameter measured: EC50 (nM)

{"Compound": "O=C(NC(C1CC1)C1CC1)c1nc(-c2ccc(F)cc2)c2ccccn12", "Target system": "human CB1 (Homo sapiens, UniProt P21554)", "Parameter measured": "EC50", "Rel": "=", "Reported": 405}
{"Compound": "O=C(NC12CC3CC(CC(C3)C1)C2)c1nc(C2CCCN2)n2ccccc12 (stereo not shown)", "Target system": "human CB1 (Homo sapiens, UniProt P21554)", "Parameter measured": "EC50", "Rel": "=", "Reported": 845}
{"Compound": "O=C(Nc1ccccc1Cl)c1nc(CN2CCC(O)C2)c2ccccn12 (stereo not shown)", "Target system": "human CB1 (Homo sapiens, UniProt P21554)", "Parameter measured": "EC50", "Rel": ">", "Reported": 17000}
{"Compound": "O=C(c1ccc2ccccc2c1)c1nc(CN2CCOCC2)c2ccccn12", "Target system": "human CB1 (Homo sapiens, UniProt P21554)", "Parameter measured": "EC50", "Rel": "=", "Reported": 878}
{"Compound": "O=C(NC1(c2ccccc2)CC1)c1nc(-c2cccc(F)c2)n2ccccc12", "Target system": "human CB1 (Homo sapiens, UniProt P21554)", "Parameter measured": "EC50", "Rel": "=", "Reported": 544}
{"Compound": "CC(NC(=O)c1nc(N2CCOCC2)n2ccccc12)C(C)(C)C (stereo not shown)", "Target system": "human CB1 (Homo sapiens, UniProt P21554)", "Parameter measured": "EC50", "Rel": ">", "Reported": 17000}
{"Compound": "O=C(c1cccc(Cl)c1)c1nc(-c2ccc(F)cc2)n2ccccc12", "Target system": "human CB1 (Homo sapiens, UniProt P21554)", "Parameter measured": "EC50", "Rel": ">", "Reported": 17000}
